Origin of the recorded values: PubChem BioAssay (EPA / NIEHS)

read-out: Cytochrome P450 3A4 (Homo sapiens) (UniProt P08684); experiment: CLD_CYP3A4_48hr: CellzDirect (CLD) Gene Expression Assay for xenobiotic metabolism (CYP3A4) at 48 hours (AID 2283698)
Sequence (P08684 whole entry, looked up): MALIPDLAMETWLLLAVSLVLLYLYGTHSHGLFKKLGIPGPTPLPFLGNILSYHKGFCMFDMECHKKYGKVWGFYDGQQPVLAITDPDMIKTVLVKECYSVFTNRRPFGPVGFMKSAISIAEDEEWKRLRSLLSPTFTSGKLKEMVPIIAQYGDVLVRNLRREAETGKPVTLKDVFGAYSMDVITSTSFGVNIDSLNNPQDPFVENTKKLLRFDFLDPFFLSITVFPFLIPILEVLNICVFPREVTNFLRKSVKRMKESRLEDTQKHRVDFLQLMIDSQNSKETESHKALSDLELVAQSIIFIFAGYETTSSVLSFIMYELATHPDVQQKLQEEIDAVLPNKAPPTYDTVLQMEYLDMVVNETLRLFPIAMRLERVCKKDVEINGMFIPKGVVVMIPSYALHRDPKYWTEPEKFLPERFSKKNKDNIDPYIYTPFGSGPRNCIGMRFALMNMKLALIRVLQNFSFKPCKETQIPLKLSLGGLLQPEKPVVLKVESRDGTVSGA
Inconclusive results are not listed. Activity calls are given as the source filed them. The calls were made as follows: active = hit-call score of the fitted dose curve at least 0.9, where 1 is the maximum; inconclusive = response in the unintended direction; inactive = score below 0.9.
observable: AC50

Example results:
compound	AC50
COC(=O)c1c(C(F)F)nc(C(F)(F)F)c(C2=NCCS2)c1CC(C)C	1.9 µM (active)
COc1cc(OC)nc(NC(=O)NS(=O)(=O)c2ncccc2OCC(F)(F)F)n1	20 µM (active)
COP(=S)(OC)Oc1ccc([N+](=O)[O-])c(C)c1	0.0472 µM (active)
CCOP(=S)(OCC)Oc1nc(Cl)n(C(C)C)n1	2.52 µM (active)
C=CCOC(=O)C(C)(C)OC(=O)c1cc(-n2c(=O)cc(C(F)(F)F)n(C)c2=O)ccc1Cl	2.79 µM (active)

# query: AC50 of entry CC(C)NC(=O)N1CC(=O)N(c2cc(Cl)cc(Cl)c2)C1=O
13.5 µM (active)

// next record CCCCC(O)(Cn1cncn1)c1ccc(Cl)cc1Cl (stereo not drawn)
1.89 µM (active)

Let us now turn to CCN(CC)c1nc(C)cc(OP(=S)(OC)OC)n1
3.58 µM (active)

One more compound: CCCN(CC)CC1COC2(CCC(C(C)(C)C)CC2)O1 (stereo not drawn)
2.82 µM (active)

Try this compound next: C=C(C)CN(CC)c1c([N+](=O)[O-])cc(C(F)(F)F)cc1[N+](=O)[O-]
3.97 µM (active)

Check CCOC(=O)C(C)OC(=O)c1cc(Oc2ccc(C(F)(F)F)cc2Cl)ccc1[N+](=O)[O-] (stereo not drawn) too.
5.01 µM (active)

How about OC(c1ccc(Cl)cc1)(c1ccc(Cl)cc1)C(Cl)(Cl)Cl ?
11 µM (active)

* * *

Assay: Tanguay_ZF_120hpf_YSE_legacy: (Legacy) Oregon State University Tanguay Lab 120 Hour Post-fertilization zebrafish Assay for Yolk Sac Edema (AID 2283634);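 as to AC50: actives raise the incidence of yolk sac edema above the DMSO baseline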
Procedure: Tanguay_ZF_120hpf_legacy is a whole embryo, multiplexed endpoint assay using zebrafish larvae exposed for 120 hours post fertilization on a 96-well plate.Tanguay_ZF_120hpf_YSE_legacy is one of one assay component(s) measured or calculated from the Tanguay_ZF_120hpf_legacy assay. […] This assay endpoint, Tanguay_ZF_120hpf_YSE_legacy, was analyzed in the positive analysis fitting direction relative to DMSO as the negative control and baseline of activity. […]
Results filed as inconclusive are left out. Activity calls are given as the source filed them. The calls were made as follows: active = hit-call score of the fitted dose curve at least 0.9, where 1 is the maximum; inconclusive = response in the unintended direction; inactive = score below 0.9.
observable: AC50

Record excerpt, results attached:
molecule	AC50
CCOP(=S)(OCC)Oc1nc(Cl)n(C(C)C)n1	37.4 µM (active)
CC(C)Oc1cccc(NC(=O)c2ccccc2C(F)(F)F)c1	48.7 µM (active)
O=C(O)c1c(Cl)ccc2cc(Cl)cnc12	inactive
CCC(C)n1c(=O)[nH]c(C)c(Br)c1=O (stereo unspecified)	inactive
CCN(CC)c1nc(C)cc(OP(=S)(OC)OC)n1	inactive

Consider the molecule shown here: N#Cc1c(Cl)cccc1Cl What is its recorded AC50?
inactive

Another molecule: CNC(=O)Oc1cccc2ccccc12
inactive

Same read-out for CCCCOCN(C(=O)CCl)c1c(CC)cccc1CC ?
inactive

* * *

experiment: ACEA_ER_80hr: ACEA Biosciences xCELLigence Real-Time Cell Analysis on Estrogen Receptor Agonism for Proliferation (AID 2282667); conditions: T47D proliferation, impedance (xCELLigence), 80 h
Inconclusive results are not listed. Active and inactive are the calls of the source. How the source made its calls: active means hit-call score of the fitted dose curve at least 0.9, where 1 is the maximum; inconclusive means response in the unintended direction; inactive means score below 0.9.
Lab note: assign the record to one of active, inactive

For orientation, consider the following solved cases.
molecule	class.assignment
CNC(=O)N(C)c1nnc(C(C)(C)C)s1	inactive
Cn1c(-c2ccccc2)cc(-c2ccccc2)[n+]1C	active
COP(=O)(OC)O/C(C)=C/C(=O)N(C)C	inactive
Clc1cccc(C(Cl)(Cl)Cl)n1	inactive
CCCC(=NOCC)C1=C(O)CC(CC(C)SCC)CC1=O (centres undefined)	inactive

Which outcome was assigned to CCCCC(C#N)(Cn1cncn1)c1ccc(Cl)cc1 (centres undefined) in this test?
inactive

Same question, CC(C)NC(=O)N1CC(=O)N(c2cc(Cl)cc(Cl)c2)C1=O this time
inactive

Try CCC(C)n1c(=O)[nH]c(C)c(Br)c1=O (centres undefined) next.
inactive

Follow-up item: N#Cc1c[nH]cc1-c1cccc2c1OC(F)(F)O2
inactive

* * *

assay: ATG_Ets_CIS: Attagene CIS-FACTORIAL HepG2 Assay for human Erythroblast Transformation Specific (ETS) (AID 2282941); details: HepG2 ETS cis-reporter transcription, actives raise or lower the signal
The source made the active and inactive calls. How the source made its calls: active means hit-call score of the fitted dose curve at least 0.9, where 1 is the maximum; inactive means score below 0.9.
Hi there, use one of these labels in your reply, thanks! true = active, false = inactive

molecule	class.assignment
CC(C)N1C(=O)N(c2ccccc2)CSC1=NC(C)(C)C	false
CCOC(=O)C(C)OC(=O)c1cc(Oc2ccc(C(F)(F)F)cc2Cl)ccc1[N+](=O)[O-] (configuration not stated)	false
Nc1c(Cl)c(F)nc(OCC(=O)O)c1Cl	false

Query: recorded result category for CC(C)Oc1cccc(NC(=O)c2ccccc2C(F)(F)F)c1 in this test
false

And what about the molecule Cc1nc(N(C)C)nc(OC(=O)N(C)C)c1C ?
false

COc1cc(OC)nc(NC(=O)NS(=O)(=O)c2ncccc2OCC(F)(F)F)n1 , same question.
false

# repeat for CCOP(=S)(OCC)Oc1nc(Cl)n(C(C)C)n1
false

Same question, O=C(O)c1c(Cl)ccc2cc(Cl)cnc12 this time
false

Next up: Nc1cnn(-c2ccccc2)c(=O)c1Cl
false

* * *

read-out: Pselectin, SELP (gene 6403); assay: BSK_4H_Pselectin: BioMAP Diversity Plus: 4H Assay for Pselectin Biomarker Activity (AID 2283026); details: primary human endothelial cells (HUVEC); actives raise or lower the signal
Activity calls are given as the source filed them. How the source made its calls: active means hit-call score of the fitted dose curve at least 0.9, where 1 is the maximum; inactive means score below 0.9.
Return exactly one item of 1.0 (active), 0.0 (inactive)

Which outcome did this test record for the molecule CCN(CC)C(=O)C(C)Oc1cccc2ccccc12 (stereo unspecified) ?
0.0

Also, Nc1c(Cl)c(Cl)nc(C(=O)O)c1Cl please.
0.0

* * *

assay: APR_HepG2_P-H2AX_1hr: Apredica 1-hour HepG2 Assay for H2AX Phosphorylation (AID 2282673); settings: high-content imaging, actives raise or lower the signal
Active and inactive are the calls of the source. Rule for the calls: active = hit-call score of the fitted dose curve at least 0.9, where 1 is the maximum; inactive = score below 0.9.
Outcomes you can answer with include only these: active, inactive

compound	class.assignment
COP(=S)(OC)Oc1ccc([N+](=O)[O-])c(C)c1	inactive
N#CN=C1SCCN1Cc1ccc(Cl)nc1	inactive
CS(=O)(=O)c1cc(C(F)(F)F)ccc1C(=O)c1cnoc1C1CC1	inactive

Status in this test for Nc1c(Cl)c(Cl)nc(C(=O)O)c1Cl ?
inactive

Entry to check: CCOc1cc(C(C)(C)C)ccc1C1COC(c2c(F)cccc2F)=N1 (configuration not stated)
inactive

What would you report for CNC(=O)Oc1cccc2ccccc12 ?
active

Entry to check: CC(C)N1C(=O)N(c2ccccc2)CSC1=NC(C)(C)C
inactive

* * *

experiment: BSK_3C_uPAR: BioMAP Diversity Plus: 3C Assay for Urokinase-type plasminogen activator receptor (uPAR) Biomarker Activity (AID 2282998); settings: BioMAP 3C HUVEC, uPAR biomarker ELISA; actives raise or lower the signal
The source made the active and inactive calls. How the source made its calls: active means hit-call score of the fitted dose curve at least 0.9, where 1 is the maximum; inactive means score below 0.9.
Your answer must be one of the following: active, inactive

compound	class.assignment
CC1(C)CCC(=Cc2ccc(Cl)cc2)C1(O)Cn1cncn1 (configuration not stated)	inactive

State the result this test recorded for Nc1c(Cl)c(Cl)nc(C(=O)O)c1Cl .
inactive

Another compound to look at: COc1ccc(-c2ccccc2)cc1NNC(=O)OC(C)C
inactive

Try this compound too: CCOc1nc(F)cc2nc(S(=O)(=O)Nc3c(Cl)cccc3Cl)nn12
inactive

Moving on to CC(C)N1C(=O)c2ccccc2NS1(=O)=O
inactive

// repeat for OC(c1ccc(Cl)cc1)(c1ccc(Cl)cc1)C(Cl)(Cl)Cl and report
active

Then this compound: CS(=O)(=O)c1cc(C(F)(F)F)ccc1C(=O)c1cnoc1C1CC1
inactive

And for CNC(=O)Oc1cccc2ccccc12 ?
inactive

Then this compound: CC(C)C1(C)N=C(c2ncccc2C(=O)O)NC1=O (configuration not stated)
inactive

* * *

assay: APR_HepG2_MitoMembPot_72hr: Apredica 72-hour HepG2 Assay for Mitochondrial Membrane Potential (AID 2282917); conditions: imaging, actives raise or lower the signal
Calls of active or inactive are those of the source. How the source made its calls: active means hit-call score of the fitted dose curve at least 0.9, where 1 is the maximum; inactive means score below 0.9.
In this exercise, the only acceptable responses are active, inactive

molecule	class.assignment
CCN(CC)C(=O)C(C)Oc1cccc2ccccc12 (stereo unspecified)	inactive
COc1cc(Cl)c(OC)cc1Cl	inactive
CSC(=O)c1c(C(F)F)nc(C(F)(F)F)c(C(=O)SC)c1CC(C)C	inactive
CCOC(=O)C(C)OC(=O)c1cc(Oc2ccc(C(F)(F)F)cc2Cl)ccc1[N+](=O)[O-] (stereo unspecified)	active
O=C1C2CC=CCC2C(=O)N1SC(Cl)(Cl)Cl (stereo unspecified)	inactive

Could you now consider this next molecule?
Lab log entry: CCN(CC)c1nc(C)cc(OP(=S)(OC)OC)n1 — outcome as called in the assay?
inactive
